Source of measurements: paper PMC12028158

Test system: UO-31
Assay: NCI60 one-dose screen
Type: cell-based
Settings: Homo sapiens, UO-31, read-out: Growth percent
Kindly supply the reported activity at 10 µM values for the records listed here.
# unit: % | format: bare number

get_value(item= CCC12C=CCN3CC[C@@]4(c5ccc(OC)cc5N(C)[C@H]4[C@@](O)(C(=O)OC)[C@@H]1OC(C)=O)[C@@H]32 (stereo partly drawn) , readout=activity at 10 µM) returns 83.9

Lab note: CC[C@]12C=CCN3CC[C@@]4(c5ccc(OC)cc5N(C)[C@H]4[C@@](O)(C(=O)OC)[C@@H]1OC(=O)CCCC[P+](C1CCCCC1)(C1CCCCC1)C1CCCCC1)[C@@H]32 [10d] gave activity at 10 µM of 78.9

Record CC[C@]12C=CCN3CC[C@@]4(c5ccc(OC)cc5N(C)[C@H]4[C@@](O)(C(=O)OC)[C@@H]1OC(=O)CCCC[P+](c1ccc(OC)cc1)(c1ccc(OC)cc1)c1ccc(OC)cc1)[C@@H]32 [10b] , field activity at 10 µM: 15.5

response.value for CC[C@]12C=CCN3CC[C@@]4(c5ccc(OC)cc5N(C)[C@H]4[C@@](O)(C(=O)OC)[C@@H]1OC(=O)CCCC[P+](c1ccccc1)(c1ccccc1)c1ccccc1)[C@@H]32 [compound 4, reference compound] (field: activity at 10 µM) = 81.9

Lab book: activity at 10 µM of "CC[C@]12C=CCN3CC[C@@]4(c5ccc(OC)cc5N(C)[C@H]4[C@@](O)(C(=O)OC)[C@@H]1OC(=O)CCC[P+](c1ccc(F)cc1)(c1ccc(F)cc1)c1ccc(F)cc1)[C@@H]32" noted as 81.5

In plain terms, "CC[C@]12C=CCN3CC[C@@]4(c5ccc(OC)cc5N(C)[C@H]4[C@@](O)(C(=O)OC)[C@@H]1OC(=O)CCC[P+](c1ccccc1)(c1ccccc1)c1ccccc1OC)[C@@H]32" has a documented activity at 10 µM of 44

---

For each of the molecules below, state its activity at 10 µM.
System: PC-3
Assay: NCI60 one-dose screen
Type: cell-based
Conditions: Homo sapiens, PC-3, read-out: Growth percent
Provide the reading as a plain figure in %.

Given item CC[C@]12C=CCN3CC[C@@]4(c5ccc(OC)cc5N(C)[C@H]4[C@@](O)(C(=O)OC)[C@@H]1OC(=O)CCCC[P+](C1CCCCC1)(C1CCCCC1)C1CCCCC1)[C@@H]32 [10d] , the value recorded as its activity at 10 µM is 3.69

The molecule listed as CCC12C=CCN3CCC4(c5ccc(OC)cc5N(C)C4C(O)(C(=O)OC)C1OC(=O)CCC[P+](c1ccc(C)cc1)(c1ccc(C)cc1)c1ccc(C)cc1)C32 (centres unmarked) has a reported activity at 10 µM of -83.3

Value of measured activity at 10 µM for the entry CC[C@]12C=CCN3CC[C@@]4(c5ccc(OC)cc5N(C)[C@H]4[C@@](O)(C(=O)OC)[C@@H]1OC(=O)CCCC[P+](c1ccc(C)cc1)(c1ccc(C)cc1)c1ccc(C)cc1)[C@@H]32 [10a] : -73.2

Measured activity at 10 µM of CC[C@]12C=CCN3CC[C@@]4(c5ccc(OC)cc5N(C)[C@H]4[C@@](O)(C(=O)OC)[C@@H]1OC(=O)CCCC[P+](c1ccc(OC)cc1)(c1ccc(OC)cc1)c1ccc(OC)cc1)[C@@H]32 [10b] : -37.2

Reported activity at 10 µM for CCC12C=CCN3CC[C@@]4(c5ccc(OC)cc5N(C)[C@H]4[C@@](O)(C(=O)OC)[C@@H]1OC(C)=O)[C@@H]32 (some centres unmarked) was 88.3

Recorded activity at 10 µM (molecule "CC[C@]12C=CCN3CC[C@@]4(c5ccc(OC)cc5N(C)[C@H]4[C@@](O)(C(=O)OC)[C@@H]1OC(=O)CCC[P+](c1ccc(F)cc1)(c1ccc(F)cc1)c1ccc(F)cc1)[C@@H]32" ): 16.7

// sample "CC[C@]12C=CCN3CC[C@@]4(c5ccc(OC)cc5N(C)[C@H]4[C@@](O)(C(=O)OC)[C@@H]1OC(=O)CCC[P+](c1ccccc1)(c1ccccc1)c1ccccc1OC)[C@@H]32" , its activity at 10 µM was 4.74

According to the records, this molecule "CC[C@]12C=CCN3CC[C@@]4(c5ccc(OC)cc5N(C)[C@H]4[C@@](O)(C(=O)OC)[C@@H]1OC(=O)CCC[P+](C1CCCCC1)(C1CCCCC1)C1CCCCC1)[C@@H]32" displays activity at 10 µM of -12
